# Tested system: Dihydrofolate reductase (Homo sapiens)
# Sequence (P00374 whole entry): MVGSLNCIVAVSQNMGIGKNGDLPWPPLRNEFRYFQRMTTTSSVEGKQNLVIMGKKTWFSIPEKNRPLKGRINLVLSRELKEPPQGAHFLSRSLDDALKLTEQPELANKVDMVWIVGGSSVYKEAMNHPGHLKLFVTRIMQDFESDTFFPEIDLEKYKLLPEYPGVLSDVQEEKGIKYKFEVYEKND
# Method summary: Inhibition of recombinant human DHFR using DHF as substrate measured every 5 sec over 6 mins in presence of NADPH by UV-Visible spectrophotometric method relative to control
pIC50: −log10 of the molar value.
Each entry below carries its recorded pIC50.
Reported endpoint: pIC50

[[record]]
smiles_string = "NC1=NC2(CCSCC2)N(OCCCOc2ccc(Br)cc2)C(N)=N1"
tested_system = "Dihydrofolate reductase (Homo sapiens)"
value_measured = 8.19

[[record]]
smiles_string = "NC1=NC2(CCSCC2)N(OCCCOc2ccc(Cl)cc2Cl)C(N)=N1"
tested_system = "Dihydrofolate reductase (Homo sapiens)"
value_measured = 8.39

[[record]]
smiles_string = "NC1=NC2(CCOCC2)N(OCCCOc2ccc(Cl)cc2)C(N)=N1"
tested_system = "Dihydrofolate reductase (Homo sapiens)"
value_measured = 7.47

[[record]]
smiles_string = "NC1=NC2(CCOCC2)N(OCCCOc2ccc(F)cc2)C(N)=N1"
tested_system = "Dihydrofolate reductase (Homo sapiens)"
value_measured = 7.33

[[record]]
smiles_string = "NC1=NC2(CCOCC2)N(OCCCOc2ccc(Cl)c(Cl)c2)C(N)=N1"
tested_system = "Dihydrofolate reductase (Homo sapiens)"
value_measured = 8.08

[[record]]
smiles_string = "NC1=NC2(CCCCC2)N(OCCCOc2ccc(Cl)cc2)C(N)=N1"
tested_system = "Dihydrofolate reductase (Homo sapiens)"
value_measured = 7.31

[[record]]
smiles_string = "NC1=NC2(CCOCC2)N(OCCCOc2cc(Cl)c(Cl)cc2Cl)C(N)=N1"
tested_system = "Dihydrofolate reductase (Homo sapiens)"
value_measured = 7.44

[[record]]
smiles_string = "CC(C)(C)c1ccc(OCCCON2C(N)=NC(N)=NC23CCOCC3)cc1"
tested_system = "Dihydrofolate reductase (Homo sapiens)"
value_measured = 8.43

[[record]]
smiles_string = "COc1ccc(OCCCON2C(N)=NC(N)=NC23CCOCC3)cc1"
tested_system = "Dihydrofolate reductase (Homo sapiens)"
value_measured = 7.96

[[record]]
smiles_string = "NC1=NC2(CCOCC2)N(OCCCOc2ccccc2)C(N)=N1"
tested_system = "Dihydrofolate reductase (Homo sapiens)"
value_measured = 7.06

[[record]]
smiles_string = "Cc1ccc(OCCCON2C(N)=NC(N)=NC23CCOCC3)cc1"
tested_system = "Dihydrofolate reductase (Homo sapiens)"
value_measured = 7.25

[[record]]
smiles_string = "Br.NC1=NC2(CCOCC2)N(OCCCOc2ccc(Cl)cc2Cl)C(N)=N1"
tested_system = "Dihydrofolate reductase (Homo sapiens)"
value_measured = 8.13

[[record]]
smiles_string = "NC1=NC2(CCSCC2)N(OCCCOc2ccc(Cl)cc2)C(N)=N1"
tested_system = "Dihydrofolate reductase (Homo sapiens)"
value_measured = 7.74

[[record]]
smiles_string = "NC1=NC2(CCOCC2)N(OCCCOc2ccc(Br)cc2)C(N)=N1"
tested_system = "Dihydrofolate reductase (Homo sapiens)"
value_measured = 7.49

